# method: growth suppression of beta-catenin knockout HCT116, pilot screen, human colon tumor cells (AID 823);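 further: 0% = wells killed by 20 µM Hyamine and 100% = untreated DMSO cell wells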
# run-conditions: CellTiter-Glo, 60 h, at 10 µM, stronger effect = lower value
Inconclusive results are not listed.
endpoint-label: viability (%)

1) CCOc1ccc(N(CC(=O)N2CCc3ccccc32)S(=O)(=O)c2c(C)noc2C)cc1
65.7
2) c1coc(C2Nc3ccccc3-c3nc4ccccc4n32)c1 (stereo unspecified)
66.6
3) CC1=C(C(=O)OCc2ccccc2)C(c2ccco2)C2=C(CC(C)(C)CC2=O)N1 (stereo unspecified)
71.9
4) Cc1ccc(S(=O)(=O)N2C3C=CC(C3)C2C(=O)O)cc1 (stereo unspecified)
94.3
5) Cn1nnnc1P(=O)(c1ccccc1)c1ccccc1
103
6) CC12CCC(C(=O)NCc3ccco3)(OC1=O)C2(C)C (stereo unspecified)
98.3
7) CCOC(=O)c1ccccc1NC(=O)CN(c1cccc(OC)c1)S(C)(=O)=O
91.7
8) O=C(c1ccc(=O)[nH]c1)N(Cc1ccco1)C1(C(=O)NC2CCCCC2)CCCCC1
97.2
9) CC1Cc2nc(SCC(=O)NCc3ccco3)n(-c3ccccc3)c(=O)c2S1 (stereo unspecified)
103
10) COc1ccc(NC(=O)Nc2cccc(C)n2)cc1
100
11) CC(=O)C1=C(O)C(=O)N(c2nnn(C)n2)C1c1cccs1 (stereo unspecified)
107
12) CCOC(=O)N1CCN(C(=O)c2ccccc2Oc2ccccc2)CC1
91
13) c1ccc(CNn2c(N3CCOCC3)nc3ccccc32)cc1
93
14) COCCn1c(=NC(=O)CSC(C)=O)sc2cc(OC)ccc21
88
15) Cc1ccc(SCC(=O)NCC(C)C)cc1
97.1
16) COc1ccc(C2C(C(=O)Nc3ccccc3OC)=C(C)Nc3ncnn32)cc1 (stereo unspecified)
99.2
17) CSc1nc2ccc(NS(=O)(=O)c3ccc4c(c3)OCCO4)cc2s1
90.8
18) Cn1c(NC(=O)CCC2CCCCC2)cc(=O)n(C)c1=O
92.9
19) O=C(CSc1ccccn1)c1ccc(F)cc1
100
20) COc1cc(NC(=O)c2cc(-c3cccc(O)c3)on2)cc(OC)c1OC
89.8
21) COc1ccc(-n2c(Cn3c(=O)sc4ccccc43)nnc2SCC(=O)N2CCOCC2)cc1
102
22) Cn1c(Cn2c(=O)sc3ccccc32)nnc1SCC(=O)NCc1ccc(F)cc1
104
23) CCOc1ccc(CCNC(=O)c2nnc(Cc3ccc(F)cc3)o2)cc1OCC
103
24) Brc1cccc(-c2nnc3sc(CNC4CCCC4)cn23)c1
95.7
25) C=CCOc1cccc(C2C(C(=O)c3ccco3)=C(O)C(=O)N2CCN2CCOCC2)c1 (stereo unspecified)
94.1
26) Cc1noc(C)c1S(=O)(=O)N(CC(=O)NCc1ccc(Cl)cc1)c1ccc2c(c1)OCO2
104
27) COC(=O)c1c(C)nc(C)c2c(=O)oc3ccccc3c12
102
28) Cc1nn(C)c(C)c1NS(=O)(=O)c1ccccc1
98
29) CSc1ccccc1NC(=O)c1onc(C)c1Cl
95.6
30) CCCC12CN3CC(CCC)(CN(C1)C3C(O)C(O)C(O)CO)C2=O (stereo unspecified)
99.7
31) CC(NC(=O)C1CCCN(S(=O)(=O)c2cnc[nH]2)C1)c1ccccc1 (stereo unspecified)
98.3
32) COc1ccc(-n2nc3cc(C)c(NC(=O)CC(C)C)cc3n2)cc1
94
33) COc1cc(CN2CCN(CCOCCO)CC2)cc(OC)c1OC
94.5
34) O=C(Nc1ccccc1)N1CCN2C(=O)c3ccccc3C12c1ccccc1 (stereo unspecified)
89.9
35) CC(NC(=O)c1cccnc1)C(c1cccs1)N1CCN(C)CC1 (stereo unspecified)
98.2
36) Cc1ccccc1CNc1nc(N)n(-c2ccccc2)n1
104
37) CCCCSC1=C(C#N)C(c2ccccc2C)CC(=O)N1 (stereo unspecified)
95.1
38) C=CCc1c(C)nc(SC)nc1Nc1ccc(C(C)=O)cc1
83.8
39) COc1ccc(N2C(=O)c3ccccc3NC23CCCCC3)cc1
94.8
40) Cc1nc(Cc2nnc(SCc3nc(N)nc(Nc4ccccc4C)n3)o2)cs1
98.7
41) CCOC(=O)c1sc(NCCNc2nc(C)c(C(=O)OCC)s2)nc1C
94.1
42) CCC(=O)Nc1nc2ccccc2n1CCN1CCOCC1
98.6
43) Cc1c(C(=O)N2CCN(CCc3ccccc3)CC2)oc2ccccc12
100
44) CCOC(=O)N1CCN(C(=O)C2CCCN(c3nc4ccc(OCC)cc4s3)C2)CC1 (stereo unspecified)
90.6
45) Cn1c(=O)c2c(nc(Sc3ncccn3)n2Cc2ccc(Cl)cc2)n(C)c1=O
82.4
46) O=C(Nc1cc(=O)c2ccccc2o1)N1CCOCC1
103
